Values compiled from PubChem BioAssay AID2060499.

Tested on: 777334-354-R2-J4-PDC tumor spheroids with HUVEC/MSC, viability
Assay: Anticancer human tumor 777334-354-R2-J4-PDC patient-derived pancreatic adenocarcinoma cell line growth inhibition [GQUAD]
Conditions: second compound 0.0316 µM; first compound 0.1 µM; hits give low values
With a cut-off of 70%, any viability, T/C strictly below it is called class 1; any viability, T/C meeting it or above is called class 0.

1) COc1ccc([C@@H](O)c2cc(-c3ncnc4cc(N5CCOCC5)ccc34)c(F)cc2Cl)nn1 + Cc1cnc(CNC(=O)c2c(=O)c3ccc(N4CCCN(C)CC4)nc3n3c2sc2ccccc23)cn1 | class 0
2) CC1COCCN1c1cc(C2(S(C)(=N)=O)CC2)nc(-c2ccnc3[nH]ccc23)n1 (stereo not given) + Cc1[nH]c2ccc(F)cc2c1-c1nc2c3cccnc3c3ncccc3c2[nH]1 | class 0
3) Nc1ccn(C2OC(CO)C(O)C2(F)F)c(=O)n1 (stereo not given) + Cc1[nH]c2ccc(F)cc2c1-c1nc2c3cccnc3c3ncccc3c2[nH]1 | class 1
4) CC(=O)O[C@H]1C(=O)[C@@]2(C)[C@H]([C@H](OC(=O)c3ccccc3)[C@]3(O)C[C@H](OC(=O)[C@H](O)[C@@H](NC(=O)c4ccccc4)c4ccccc4)C(C)=C1C3(C)C)[C@]1(OC(C)=O)CO[C@@H]1C[C@@H]2O + Cc1cnc(CNC(=O)c2c(=O)c3ccc(N4CCCN(C)CC4)nc3n3c2sc2ccccc23)cn1 | class 1
5) CC(C)(O)C1CCC(Nc2ccc3ncc(-c4cccc(C(F)(F)F)c4)n3n2)CC1 (stereo not given) + Cc1cnc(CNC(=O)c2c(=O)c3ccc(N4CCCN(C)CC4)nc3n3c2sc2ccccc23)cn1 | class 0
6) C=CC(=O)N1CCN(c2nc(=O)n(-c3c(C)ccnc3C(C)C)c3nc(-c4c(O)cccc4F)c(F)cc23)C(C)C1 (stereo not given) + CN(C)c1ccc(Nc2c3ccc(NC(=O)CCN4CCCC4)cc3nc3cc(NC(=O)CCN4CCCC4)ccc23)cc1 | class 0
7) COc1ncnc(C2CC2)c1-c1ncc2cnn(Cc3ccc(-c4nc(C(F)(F)F)cn4C(C)C)cc3)c2n1 + Cc1cnc(CNC(=O)c2c(=O)c3ccc(N4CCCN(C)CC4)nc3n3c2sc2ccccc23)cn1 | class 0
8) O=C(NO)c1cnc(N2CCN(S(=O)(=O)c3ccc4ccccc4c3)CC2)nc1 + CN(C)c1ccc(Nc2c3ccc(NC(=O)CCN4CCCC4)cc3nc3cc(NC(=O)CCN4CCCC4)ccc23)cc1 | class 0
9) CC1COCCN1c1cc(-c2ccnn2C)c2ccnc(-c3ccn[nH]3)c2n1 (stereo not given) + Cc1cnc(CNC(=O)c2c(=O)c3ccc(N4CCCN(C)CC4)nc3n3c2sc2ccccc23)cn1 | class 1
10) CC(C)n1c(=O)n(C)c2cnc3cc(F)c(-c4ccc(OCCCN5CCCCC5)nc4)cc3c21 + Cc1[nH]c2ccc(F)cc2c1-c1nc2c3cccnc3c3ncccc3c2[nH]1 | class 0

---

Tested on: 777334-354-R2-J4-PDC tumor spheroids with HUVEC/MSC, viability
Assay: Anticancer human tumor 777334-354-R2-J4-PDC cell line growth inhibition [GQUAD];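 further: spheroids exposed to compounds for 7 days before readout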
Conditions: second compound 0.316 µM; first compound 0.0316 µM; hits give low values
Catalogue of viability, T/C values
MEASURE: viability, T/C (%)

1) COc1cccc2c1C(=O)c1c(O)c3c(c(O)c1C2=O)CC(O)(C(=O)CO)CC3OC1CC(N)C(O)C(C)O1 (stereo not given) + Cc1cnc(CNC(=O)c2c(=O)c3ccc(N4CCCN(C)CC4)nc3n3c2sc2ccccc23)cn1 | 73.5
2) COc1ccc([C@@H](O)c2cc(-c3ncnc4cc(N5CCOCC5)ccc34)c(F)cc2Cl)nn1 + CN(C)c1ccc(Nc2c3ccc(NC(=O)CCN4CCCC4)cc3nc3cc(NC(=O)CCN4CCCC4)ccc23)cc1 | 96.8
3) C=CCn1c(=O)c2cnc(Nc3ccc(N4CCN(C)CC4)cc3)nc2n1-c1cccc(C(C)(C)O)n1 + CN(C)c1ccc(Nc2c3ccc(NC(=O)CCN4CCCC4)cc3nc3cc(NC(=O)CCN4CCCC4)ccc23)cc1 | 105
4) COc1ccc([C@@H](O)c2cc(-c3ncnc4cc(N5CCOCC5)ccc34)c(F)cc2Cl)nn1 + Cc1cnc(CNC(=O)c2c(=O)c3ccc(N4CCCN(C)CC4)nc3n3c2sc2ccccc23)cn1 | 93.9
5) COc1ccc([C@@H](O)c2cc(-c3ncnc4cc(N5CCOCC5)ccc34)c(F)cc2Cl)nn1 + Cc1[nH]c2ccc(F)cc2c1-c1nc2c3cccnc3c3ncccc3c2[nH]1 | 92.8
6) CC1COCCN1c1cc(C2(S(C)(=N)=O)CC2)nc(-c2ccnc3[nH]ccc23)n1 (stereo not given) + Cc1cnc(CNC(=O)c2c(=O)c3ccc(N4CCCN(C)CC4)nc3n3c2sc2ccccc23)cn1 | 84.1
7) Cc1cccc(N(C)C(=O)C2C(O)CCN2c2nc(C)cc(C(F)(F)F)c2C#N)c1 (stereo not given) + CN(C)c1ccc(Nc2c3ccc(NC(=O)CCN4CCCC4)cc3nc3cc(NC(=O)CCN4CCCC4)ccc23)cc1 | 95.3
8) CC(=O)O[C@H]1C(=O)[C@@]2(C)[C@H]([C@H](OC(=O)c3ccccc3)[C@]3(O)C[C@H](OC(=O)[C@H](O)[C@@H](NC(=O)c4ccccc4)c4ccccc4)C(C)=C1C3(C)C)[C@]1(OC(C)=O)CO[C@@H]1C[C@@H]2O + Cc1[nH]c2ccc(F)cc2c1-c1nc2c3cccnc3c3ncccc3c2[nH]1 | 81.4
9) O=C(c1cc(Cc2n[nH]c(=O)c3ccccc23)ccc1F)N1CCN(C(=O)C2CC2)CC1 + Cc1[nH]c2ccc(F)cc2c1-c1nc2c3cccnc3c3ncccc3c2[nH]1 | 99.2
10) CC1COCCN1c1cc(C2(O)CC3CCC(C2)O3)c2cnn(-c3ccn[nH]3)c2n1 (stereo not given) + Cc1cnc(CNC(=O)c2c(=O)c3ccc(N4CCCN(C)CC4)nc3n3c2sc2ccccc23)cn1 | 54.1

---

Test system: 777334-354-R2-J4-PDC tumor spheroids with HUVEC/MSC, viability
Experiment: Anticancer human tumor 777334-354-R2-J4-PDC cell line growth inhibition [GQUAD];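 further: spheroids exposed to compounds for 7 days before readout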
Settings: second compound 1 µM; first compound 0.1 µM; hits give low values
Note that class boundaries on viability, T/C are c1 (below 70%), c2 (70% to below 90%), c3 (90% or more)

1. COc1cccc2c1C(=O)c1c(O)c3c(c(O)c1C2=O)CC(O)(C(=O)CO)CC3OC1CC(N)C(O)C(C)O1 (stereo not given) + CN(C)c1ccc(Nc2c3ccc(NC(=O)CCN4CCCC4)cc3nc3cc(NC(=O)CCN4CCCC4)ccc23)cc1 | c2
2. CC1COCCN1c1cc(C2(O)CC3CCC(C2)O3)c2cnn(-c3ccn[nH]3)c2n1 (stereo not given) + CN(C)c1ccc(Nc2c3ccc(NC(=O)CCN4CCCC4)cc3nc3cc(NC(=O)CCN4CCCC4)ccc23)cc1 | c1
3. C=CC(=O)N1CCN(c2nc(=O)n(-c3c(C)ccnc3C(C)C)c3nc(-c4c(O)cccc4F)c(F)cc23)C(C)C1 (stereo not given) + CN(C)c1ccc(Nc2c3ccc(NC(=O)CCN4CCCC4)cc3nc3cc(NC(=O)CCN4CCCC4)ccc23)cc1 | c2
4. CC1COCCN1c1cc(C2(S(C)(=N)=O)CC2)nc(-c2ccnc3[nH]ccc23)n1 (stereo not given) + Cc1cnc(CNC(=O)c2c(=O)c3ccc(N4CCCN(C)CC4)nc3n3c2sc2ccccc23)cn1 | c3
5. CCCS(=O)(=O)Nc1ccc(F)c(C(=O)c2c[nH]c3ncc(-c4ccc(Cl)cc4)cc23)c1F + Cc1cnc(CNC(=O)c2c(=O)c3ccc(N4CCCN(C)CC4)nc3n3c2sc2ccccc23)cn1 | c2
6. C=CCn1c(=O)c2cnc(Nc3ccc(N4CCN(C)CC4)cc3)nc2n1-c1cccc(C(C)(C)O)n1 + Cc1cnc(CNC(=O)c2c(=O)c3ccc(N4CCCN(C)CC4)nc3n3c2sc2ccccc23)cn1 | c1

---

Listed below: viability, T/C values for each entry.
System: 777334-354-R2-J4-PDC tumor spheroids with HUVEC/MSC, viability
Assay: Anticancer human tumor 777334-354-R2-J4-PDC cell line growth inhibition [GQUAD];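 further: spheroids exposed to compounds for 7 days before readout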
Details: second compound 1 µM; first compound 10 µM; hits give low values
MEASURE: viability, T/C (%)

1) O=C(NO)c1cnc(N2CCN(S(=O)(=O)c3ccc4ccccc4c3)CC2)nc1 + Cc1[nH]c2ccc(F)cc2c1-c1nc2c3cccnc3c3ncccc3c2[nH]1 | 2.98
2) C=CC(=O)N1CCN(c2nc(=O)n(-c3c(C)ccnc3C(C)C)c3nc(-c4c(O)cccc4F)c(F)cc23)C(C)C1 (stereo not drawn) + CN(C)c1ccc(Nc2c3ccc(NC(=O)CCN4CCCC4)cc3nc3cc(NC(=O)CCN4CCCC4)ccc23)cc1 | 97.7
3) C#Cc1c(F)ccc2cc(O)cc(-c3ncc4c(N5CC6CCC(C5)N6)nc(OCC56CCCN5CC(F)C6)nc4c3F)c12 (stereo not drawn) + Cc1[nH]c2ccc(F)cc2c1-c1nc2c3cccnc3c3ncccc3c2[nH]1 | 18.1
